Origin of measurements: PubChem BioAssay (NCI)

Consider the following compounds and their measured TGI readings.
system: TK-10 renal; assay: NCI tumour cell line growth inhibition, 48 h
I only need the number, in µM, no unit after it.

- smiles representation: "Cc1cc(C)c(S(=O)(=O)N(CCCCCCN)OCCCON(CCCCCCN)S(=O)(=O)c2c(C)cc(C)cc2C)c(C)c1"
  unit of measurement: "µM"
  TGI: 3.07

Look at this compound and give its reported TGI. O=C([CH-]C(=O)c1ccccc1)c1ccccc1.O=C([CH-]C(=O)c1ccccc1)c1ccccc1.[CH2-]CCC.[CH2-]CCC.[Sn+4]
1.11

----------
test system: NCI-H522 lung; test: NCI tumour cell line growth inhibition, 48 h
Consider the following molecules and their measured TGI readings.

Sample records with TGI:
- molecule: "Cc1cc(C)c(S(=O)(=O)N(CCCCCCN)OCCCON(CCCCCCN)S(=O)(=O)c2c(C)cc(C)cc2C)c(C)c1"
  TGI: "3.27 µM"
- molecule: "CN1CCN(C(=O)OCc2nc3c(N4CCOCC4)nc(-c4ccccc4)nc3n2C)CC1"
  TGI: "2.4 µM"
- molecule: "Cc1ccc(OC2CC(n3cnc4c(=O)[nH]c(Br)nc43)OC2Oc2ccc(C)cc2)cc1 (stereo not given)"
  TGI: "59.8 µM"
- molecule: "Cc1cccc2c1NC(=O)[C@@H](NC(=O)[C@H](CCC(F)(F)F)[C@H](CCC(F)(F)F)C(N)=O)N=C2c1cccc(F)c1"
  TGI: "53.7 µM"
- molecule: "O=C1NC(=S)NC1C(Cc1ccccc1)c1ccco1 (stereo not given)"
  TGI: "> 100 µM"
- molecule: "CC1(C)OP(=O)(c2ccccc2)C=C1Br (stereo not given)"
  TGI: "> 100 µM"
- molecule: "Cc1nn(C(=O)c2ccc(Cl)cc2)c2c1C(c1ccccc1)SC(N)=N2 (stereo not given)"
  TGI: "> 10 µM"
- molecule: "CO[C@@H]1C[C@H]2[C@@H]3CC[C@H]([C@@H](C)COC(C)=O)[C@@]3(C)CC[C@@H]2[C@@]2(C)CC[C@H]3C[C@]312"
  TGI: "33.2 µM"
- molecule: "CC(=O)NS(=O)(=O)c1ccc(-n2nc(-c3ccccc3)cc2-c2cc(O)ccc2O)cc1"
  TGI: "> 100 µM"
- molecule: "CCOc1ccc(-n2c(=O)c3nn4c(=O)n(-c5ccc(OCC)cc5)c(=O)c4nn3c2=O)cc1"
  TGI: "> 100 µM"

Look at this molecule and give its reported TGI. O=C(O)c1cc(C(=O)C(=O)c2cc(C(=O)O)c(O)c3ccccc23)c2ccccc2c1O
> 100 µM

Again, but for O=C(NCCNc1nccc(-c2c(-c3ccc(F)cc3)nc3sccn23)n1)Nc1cccc(C(F)(F)F)c1
26 µM

Again, but for O=C1CCN(CCC(F)(F)C(F)(F)C(F)(F)C(F)(F)F)C(=S)N1
> 100 µM

Again, but for Cc1ccc(C)n1-n1c(Cc2ccc(Cl)cc2)n[nH]c1=O
> 100 µM

Again, but for Cc1cc2c(=O)cc(-c3ccc(O)cc3)oc2c(C(=O)O)c1C
> 100 µM

Again, but for CC(=O)c1cc2sc3ccccc3c2[nH]1
> 100 µM

Again, but for O=C(CC(O)(C(F)(F)Cl)C(F)(F)Cl)CC(O)(C(F)(F)Cl)C(F)(F)Cl
> 10 µM

Again, but for CCN(CC)CCC1CCCCN1CC(=O)N1c2ccccc2NC(=O)CC1C (stereo not given)
> 100 µM

Again, but for N[C@@H]1c2c(Br)sc(Br)c2C(=O)[C@H]1Br
29 µM

Again, but for CCCc1c(O)c2ccccc2[nH]c1=O
> 100 µM

----------
system: HS 578T breast; assay: NCI tumour cell line growth inhibition, 48 h
Binary call on TGI: met from 30 µM upward, not met beneath that.

- compound: "COC(=O)CC12CC(NC(=O)c3csc([C@@H](C[C@H](C(C)C)N(C)C(=O)[C@@H](NC(=O)[C@H]4CCCCN4C)C(C)C)OC(C)=O)n3)(C1)C2"
  category label: "met"
- compound: "N=C(N)SCCSC(=N)N"
  category label: "met"
- compound: "COc1ccc(/C=C2\\N=C(N3CCOCC3)NC2=O)cc1"
  category label: "met"
- compound: "N#Cc1nc(/C=C/c2cccs2)oc1N"
  category label: "met"
- compound: "COc1cc2cc(Oc3ccc(NC(=O)Nc4ccc(F)c(C(F)(F)F)c4)cc3)c(C)nc2cc1OCCN1CCOCC1"
  category label: "not met"

Please tell me: is the compound CC1NC(=O)c2c(-c3ccccc3)nn(-c3ccccc3)c2NC1=O (stereo unspecified) at or over 30 µM in terms of TGI?
met

Again, but for Cc1cc(N(C)C)ccc1N=Nc1ccc2ncccc2c1
met

Again, but for CC[C@H](C)[C@H](NC(=O)[C@H](Cc1ccc(O)cc1)NCC(F)(F)F)C(=O)OC(C)(C)C
met

Again, but for C=CC(Br)(CBr)CCC1OC1(C)C (stereo unspecified)
met

----------
tested on: OVCAR-4 ovarian; assay: NCI tumour cell line growth inhibition, 48 h
Consider the following molecules and their measured GI50 readings.

Sample records with GI50:
- molecule: "O=C(CSc1nc2ccc([N+](=O)[O-])cc2[nH]1)Nc1ccc([N+](=O)[O-])cc1"
  GI50: "1.92 µM"
- molecule: "CSc1nc(SC)c2cnn(-c3ccnc4cc(Cl)ccc34)c2n1"
  GI50: "> 100 µM"
- molecule: "COc1cc2c3c(n(CCCNC(C)(C)CO)c(=O)c2cc1OC)-c1cc2c(cc1C3=O)OCO2"
  GI50: "11.3 µM"
- molecule: "CCOC(=O)Nc1ccc2c3c(cccc13)-c1ccccc1-2"
  GI50: "> 100 µM"

Let us examine a further case.
Give OVCAR-4 ovarian GI50 for Nc1n[nH]c2ccc([C@H]3[C@@H]4C5CCC(C5)[C@@H]4c4c(ccc5[nH]ncc45)N3S(=O)(=O)C3CC3)cc12 (stereo not given in full)
2.63 µM

----------
test system: LOX IMVI melanoma; assay: NCI tumour cell line growth inhibition, 48 h
Consider the following molecules and their measured TGI readings.

Sample records with TGI:
- molecule: "Cc1cc2c(cc1C)[n+](=O)c(C(=O)CC(=O)C(=O)Nc1ccccc1C)c(C)n2[O-]"
  target system: "LOX IMVI melanoma"
  TGI: "> 100 µM"
- molecule: "O=C(O)c1ccc(NCn2nc(-c3ccccc3O)oc2=S)cc1O"
  target system: "LOX IMVI melanoma"
  TGI: "> 100 µM"
- molecule: "Cc1cc2c(=O)cc(-c3ccc(O)cc3)oc2c(C(=O)O)c1C"
  target system: "LOX IMVI melanoma"
  TGI: "> 100 µM"

Look at this molecule and give its reported TGI. CCOC(=O)c1cc2c(OC)cc(OC)cc2oc1=O
> 100 µM

Again, but for CC[C@H]1[C@@H](C)C=C[C@@H](C)N1S(=O)(=O)c1ccc(C)cc1
> 100 µM

Again, but for Cc1cc2c(=O)cc(-c3ccc(C(=O)O)cc3)oc2c(C(N)=O)c1C
> 100 µM

Again, but for CCN1CCC(O)(/C=C/c2cccc(C)c2)C(C(=O)/C=C/c2cccc(C)c2)C1 (stereo not given)
5.02 µM

----------
tested on: SK-MEL-2 melanoma; experiment: NCI tumour cell line growth inhibition, 48 h
Binary call on TGI: MET from 20 µM upward, NOT MET beneath that.

Here's what some known entries look like.
- compound: "C=CCC1=C2CCCCC2CCC1=O (stereo unspecified)"
  category label: "MET"
- compound: "CN1CCN(C(=O)OCc2nc3c(N4CCOCC4)nc(-c4ccccc4)nc3n2C)CC1"
  category label: "NOT MET"
- compound: "Cc1ccc(C)c(N2C(=O)C(=O)C(c3nc4ccccc4s3)C(=O)C2=O)c1"
  category label: "MET"
- compound: "COc1ncnn2ccc(-c3cnc4nc(C)n(Cc5nnc(C(C)F)o5)c4c3)c12 (stereo unspecified)"
  category label: "NOT MET"

Please tell me: is the compound O=[N+]([O-])c1cccc(C=NC23CC4CC(CC(C4)C2)C3)c1 at or over 20 µM in terms of TGI?
MET

Again, but for NNC(=S)N/N=C/c1ccccn1
MET

Again, but for O=C1NC(=N[C@@H]2C[C@H]2c2ccccc2)S/C1=C\c1ccc2ncccc2c1
NOT MET

----------
Consider the following molecules and their measured TGI readings.
tested on: SK-MEL-28 melanoma; test: NCI tumour cell line growth inhibition, 48 h
I only need the number, in µM, no unit after it.

- smiles representation: "Brc1ccc2[nH]cc([C@@H]3CN[C@@H](c4c[nH]c5ccc(Br)cc45)CN3)c2c1"
  property name: "TGI"
  result value: 27.8
- smiles representation: "COc1cc2cc(Oc3ccc(NC(=O)Nc4ccc(F)c(C(F)(F)F)c4)cc3)c(C)nc2cc1OCCN1CCOCC1"
  property name: "TGI"
  result value: 3.13

Let us examine a further case.
Look at this molecule and give its reported TGI. COc1c(O)cc2c(c1CC=C(C)C)OC(=O)c1c(cc(O)c(CC=C(C)C)c1O)O2
9.52
